Hello, the source for this data is PubChem BioAssay AID1159580, in case you need it.

Reported normalized growth by item:
# experiment-notes: chemical genetic growth profiling, strain panel (AID 1159580);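 also: tested at 20 µM; growth read once vehicle control cultures reached saturation at 30 °C; 1 = growth at the plate median or of vehicle wells; lower values mean less growth of the strain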
# experimental-context: S. cerevisiae deletion strains, growth OD, locus YDL028C, strain MPS1, stronger effect = lower value
About 2,000 (36%) of roughly 5,500 compounds were called active. Another 18% or so got no clear call; they are omitted. The list shows a part of the results.
Answer with a bare number; do not write a unit.

As a guide, the following entries are already answered.
c1ccc(-c2nnc(-c3ccccn3)nc2-c2ccccc2)cc1
0.896
FC(F)(F)c1cccc(NC(=S)NN=C2CCCCCC2)c1
0.997
FC(F)(F)c1ccc(N2CCc3ccccc3C2)c(NC(=S)Nc2cc(Cl)cc(Cl)c2)c1
0.987
O=C1Nc2ccccc2/C1=C\c1c(Cl)cccc1Cl
0.975

Inquiry: Which normalized growth is listed for Cc1cc(Cl)ccc1NNC(=O)c1sccc1Cl ?
Reply text: 0.912

Inquiry: Which normalized growth is listed for COc1ccccc1NC(=S)N/N=C\c1ccccc1O ?
Reply text: 0.96

Inquiry: Which normalized growth is listed for O=C1Nc2ccccc2/C1=C/c1ccc(Oc2ccccc2)nc1 ?
Reply text: 0.966

Inquiry: Which normalized growth is listed for Cc1c(C)c(C)c(C(O)c2ccccc2)c(C)c1C (configuration not stated) ?
Reply text: 1
